Kindly supply the reported GI50 values for the records listed here.
Test system: OVCAR-5
Experiment: NCI tumour cell line growth inhibition, 48 h
Active and inactive are the calls of the source. Cut-off read from the data, not from the text of the source: active = GI50 up to about 1.1 µM and inactive = higher.

See these solved cases before continuing.
- compound: "O=C1CCCC1CN1CCCC1 (stereo unspecified)"
  assay-system: "OVCAR-5"
  GI50: "18.3 µM (inactive)"
- compound: "CCOC(=O)C(=O)Nc1c(C)cccc1C"
  assay-system: "OVCAR-5"
  GI50: "> 100 µM (inactive)"
- compound: "O=C1C(Cl)=C(N2CCN(c3ncccn3)CC2)C(=O)c2c(O)ccc(O)c21"
  assay-system: "OVCAR-5"
  GI50: "7.91 µM (inactive)"
- compound: "COc1nc(C(Cl)(Cl)Cl)c(Cl)c(O)c1Cl"
  assay-system: "OVCAR-5"
  GI50: "> 100 µM (inactive)"
- compound: "CCN(CC)C(=S)SS(=O)(=O)c1ccc(Cl)cc1"
  assay-system: "OVCAR-5"
  GI50: "44 µM (inactive)"

Now consider a different compound.
Ask: I am curious: what GI50 value has been reported for "COc1ccc(-c2cc(-c3ccccc3)[nH]c(=S)c2C#N)cc1" ?
Reply: 62.1 µM (inactive)
